- Tested on: Cost ALCL cells (NPM–ALK)
- measurement notes: Cell viability assay (CellTiterGlo, ATP content)
- Type: cell-based, human
- assay setup: increasing doses, 48 h
Where a SMILES comes first, the peptide text is derived from it. The star is where a group is joined. Myristoyl = CCCCCCCCCCCCCC(=O)*

molecule: CCCCCCCCCCCCCC(=O)N[C@@H](CC(=O)O)C(=O)N[C@@H](Cc1ccc(O)cc1)C(=O)N[C@@H](CC(N)=O)C(=O)N1CCC[C@H]1C(=O)N[C@@H](CC(N)=O)C(=O)N[C@@H](Cc1ccc(O)cc1)C(=O)N[C@@H](CS)C(=O)N[C@@H](Cc1ccccc1)C(=O)N[C@@H](C)C(=O)NCC(=O)N[C@@H](CCCCN)C(=O)N[C@H](C(N)=O)[C@@H](C)O [P12-1] (Myristoyl-DYNPNYCFAGKT-NH2)
effect on cell viability (cytotoxicity): no effect
//
molecule: CCCCCCCCCCCCCC(=O)N[C@@H](CCCCN)C(=O)N[C@@H](CCC(=O)O)C(=O)N[C@H](C(=O)N1CCC[C@H]1C(=O)N[C@@H](CCCNC(=N)N)C(=O)N[C@@H](CCCCN)C(=O)N[C@@H](CC(N)=O)C(=O)N[C@H](C(=O)N[C@H](C(=O)N[C@@H](CC(C)C)C(=O)N[C@H](C(=O)N[C@@H](CCCNC(=N)N)C(N)=O)[C@@H](C)CC)[C@@H](C)O)[C@@H](C)CC)C(C)C [P12-4] (Myristoyl-KEVPRKNITLIR-NH2)
effect on cell viability (cytotoxicity): no effect
